- protocol: Drug level in mouse stool after 3 days
- Format: ADME, organism-based
- test-parameters: read-out: Drug uptake
readout-label: concentration at 72 h (ng/g)

- CO/N=C(\C(=O)N[C@@H]1C(=O)N2C(C(=O)O)=C(CSc3nc(=O)c(=O)[nH]n3C)CS[C@H]12)c1csc(N)n1: 93800

----------
- protocol: Drug level in mouse stool after 5 days
- Format: ADME, organism-based
- test-parameters: read-out: Drug uptake
readout-label: concentration at 120 h (ng/g)

• C[C@@H](O)[C@H]1C(=O)N2C(C(=O)O)=C(S[C@@H]3CN[C@H](C(=O)Nc4cccc(C(=O)O)c4)C3)[C@H](C)[C@H]12 = 10500
